- STUDY_TARGET: T1, human CD4 on cells (SKW3 cells; human PBMCs) (human, UniProt P01730 26-458)
- T1 construct: whole, on cells; SKW3 CD4 knockout cells served as the negative cell line in the primary screen; also called hCD4; huCD4
- EXPERIMENT_SUMMARY: FACS binning on SKW3 cells; competitor RPA-T4-PE-Dazzle 594; background 783, max binding 15000
ENDPOINT: RPA-T4-PE-Dazzle 594 signal with supernatant

1. 75110_07J02A (antibody, V domains shown, Tested as non-clonal AlivaMab Mouse Kappa hybridoma supernatant (detected with anti-mouse Fc gamma and anti-human kappa)) VH: EVQLVESGGGLVQPGGSLRLSCAASGFTFSSYWMSWVRQAPGKGLEWVANIKEDGSEKYYVDSVKGRFTISRDNAKNSLYLQMNSLRAEDTAVYYCARDGSYSGYGMDVWGQGTTVTVSS VL: AIQMTQSPSSLSASVGDRVTITCRASQGIRNDLGWYQQKPGKAPKLLIYAASSLQSGVPSRFSGRGSGTDFALTISSLQPEDFATYYCLLDYNYPYTFGQGTRLEIK : 15900
2. 75110_14N19A (antibody, V domains shown, Tested as non-clonal AlivaMab Mouse Kappa hybridoma supernatant (detected with anti-mouse Fc gamma and anti-human kappa)) VH: QVQLQESGPGLVKPSETLSLTCTVSGGSISRYYWSWIRQPAGKGLEWIGRICTSENPNYNPALKSRVTMSVDTSKNQFSLKLSSVTAADTAVYYCARELERLNYYGMDVWGQGTTVTVSS VL: DIQMTQFPSSLSASVGDRVTITCQASQDISNYLNWYQQKPGKAPKLLIYDASNLESGVPSRFSGRGSGTDFTFTISSLQPEDFATFYCQQYDTLPITFGQGTRLEIK : 16600
